- testSummary: chemical genetic growth profiling, strain panel (AID 1159580);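 further: tested at 20 µM; growth read once vehicle control cultures reached saturation at 30 °C; lower values mean less growth of the strain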
- measurementParameters: S. cerevisiae deletion strains, growth OD, locus YKL190W, strain CNB1, active compounds read low
About 2,000 (36%) of roughly 5,500 compounds were called active. Not shown: some 18% with an inconclusive outcome. Some of the results follow.
Decide using normalized growth alone. Strictly below 1: TRUE. Equal to or above 1: FALSE.

Record excerpt, results attached:
O=C(c1ccccc1)c1cc2c(cc1Br)OCCO2 ... TRUE
CC12NC(=O)NC1(C)NC(=O)N2 (stereo not given) ... FALSE
Cc1c(Cl)cccc1Nc1ccccc1C(=O)O ... TRUE

Consider the additional molecule presented here.
// query Lab note: normalized growth threshold 1. Does this molecule come in strictly under it? CCCCCCOc1ccccc1C(N)=O
// result TRUE
